# Test system: RXF 393 renal
# Test details: NCI tumour cell line growth inhibition, 48 h
Measurement name: TGI (µM)
Numeric answer only, unit µM assumed.

Worked cases, TGI given:
Please tell me the measured TGI for "CNC(=O)c1nn(C)c2c1C(C)(C)Cc1cnc(Nc3cccc(N4CCN(C)CC4)c3)nc1-2" ; system: RXF 393 renal.
1.38

Please tell me the measured TGI for O=C(/C=C/C12c3ccccc3C(c3ccccc31)C1C(=O)N(c3ccc(Cl)cc3)C(=O)C12)c1ccccn1 (stereo unspecified) ; system: RXF 393 renal.
0.448

Next compound, please.
Please tell me the measured TGI for "Cc1cc(Cl)nc2ccc(Cc3ccc4nc(Cl)cc(C)c4c3)cc12" ; system: RXF 393 renal.
27.6

###

# Tested on: OVCAR-3 ovarian
# Test details: NCI tumour cell line growth inhibition, 48 h
Catalogue of TGI values
Numeric answer only, unit µM assumed.

Please tell me the measured TGI for O=C(CN1CCN(Cc2ccccc2Cl)CC1)NC1CC(=O)c2c(Br)sc(Br)c21 (stereo unspecified) ; system: OVCAR-3 ovarian.
43.4

Please tell me the measured TGI for "Cn1c(-c2ccc[se]2)ccc1-c1ccc(C=O)[se]1" ; system: OVCAR-3 ovarian.
5.71

Please tell me the measured TGI for "N#CC(C#N)=NNc1ccc2cn[nH]c2c1" ; system: OVCAR-3 ovarian.
76.1

---
Please tell me the measured TGI for "Cc1cc2cc3cc(C)c(N)cc3nc2cc1N" ; system: OVCAR-3 ovarian.
1.85

Please tell me the measured TGI for "O=[N+]([O-])c1ccc(/C=C/c2nc3ccc(Cl)cc3[nH]2)cc1" ; system: OVCAR-3 ovarian.
65.1

Please tell me the measured TGI for CC(=O)c1ccccc1NC(=O)C(=O)C(C(=O)c1ccc2ccccc2c1)C1OC(=O)c2ccccc21 (stereo unspecified) ; system: OVCAR-3 ovarian.
54.3

Please tell me the measured TGI for "O=C1C=C(Nc2ccccc2C(=O)CC(=O)C(=O)Nc2ccc(Cl)cc2)c2ccccc2C1=O" ; system: OVCAR-3 ovarian.
9.29

Please tell me the measured TGI for "CN1CC=C(c2cc(NC(=O)Nc3ccc(Oc4ccnc(NC(=O)C5CC5)c4)c(F)c3)cc(C(F)(F)F)c2)CC1" ; system: OVCAR-3 ovarian.
4.93

Please tell me the measured TGI for "C[C@@]1(CCCCCCCCCCc2ccccc2)C[C@@]2(C)OC(=O)C[C@H]2OO1" ; system: OVCAR-3 ovarian.
34.6

Please tell me the measured TGI for "CN(C)C1CCN(Cc2ccc(NC(=O)c3cncc(C#Cc4cnc(N)c5ncccc45)c3)cc2C(F)(F)F)CC1" ; system: OVCAR-3 ovarian.
17.6

###

# Tested on: UO-31 renal
# Test details: NCI tumour cell line growth inhibition, 48 h
Measurement name: TGI (µM)
Numeric answer only, unit µM assumed.

Worked cases, TGI given:
Item "Cc1cc2cc3cc(C)c(N)cc3nc2cc1N" : provide TGI
10.4

Item "Oc1cc(N2CC2)c(O)cc1N1CC1" : provide TGI
0.818

---
Item "Nc1nc(N)c(CCCCc2ccccc2)c(C=O)n1" : provide TGI
45.4

###

# Test system: KM12 colon
# Test details: NCI tumour cell line growth inhibition, 48 h
Catalogue of TGI values
Numeric answer only, unit µM assumed.

Worked cases, TGI given:
Please tell me the measured TGI for "CN1CCN(Cc2ccc(NC(=O)c3cncc(C#Cc4c(N)ncc5ccc(C#N)cc45)c3)cc2C(F)(F)F)CC1" ; system: KM12 colon.
0.791

Please tell me the measured TGI for "CN1CCN(C(=O)CCC(=O)Nc2cc3c(c4ccccc24)-c2ccc4ccccc4c2C3)CC1" ; system: KM12 colon.
3.2

Please tell me the measured TGI for "Oc1cc(N2CC2)c(O)cc1N1CC1" ; system: KM12 colon.
4.44

Please tell me the measured TGI for "Cc1cc2cc3cc(C)c(N)cc3nc2cc1N" ; system: KM12 colon.
2.03

Next compound, please.
Please tell me the measured TGI for "CCCCCCCCCCCCCC[n+]1ccccc1" ; system: KM12 colon.
2.25

###

# Tested on: OVCAR-3 ovarian
# Test details: NCI tumour cell line growth inhibition, 48 h; in the data active = GI50 below about 0.43 µM; inactive = the rest
Choose the fitting class; nothing outside active, inactive is accepted.

Hi team, can someone confirm the assay call for "O=C([O][Hg][c]1ccccc1)c1ccccc1" ?
active

Hi team, can someone confirm the assay call for "Cc1ccc(C)c2c1C(=O)N(c1ccc(F)cc1F)C2=O" ?
inactive

Hi team, can someone confirm the assay call for "CN(C)C1CCN(Cc2ccc(NC(=O)c3cncc(C#Cc4cnc(N)c5ncccc45)c3)cc2C(F)(F)F)CC1" ?
inactive

Hi team, can someone confirm the assay call for "O=[N+]([O-])c1ccc(/C=C/c2nc3ccc(Cl)cc3[nH]2)cc1" ?
inactive

Hi team, can someone confirm the assay call for COc1ccc2c(c1)N(Cc1ccc(Cl)cc1)CCC2N1CCCC1=O (stereo not drawn) ?
inactive

Hi team, can someone confirm the assay call for "CCN1CCC(CC(=O)Nc2n[nH]c3nnc(-c4cccc(F)c4F)cc23)CC1" ?
inactive

---
Hi team, can someone confirm the assay call for CCCCCCC1N=C(N)N=C(N)N1c1cccc(Cl)c1 (stereo not drawn) ?
inactive

Hi team, can someone confirm the assay call for "CN1CCN(Cc2ccc(NC(=O)c3cncc(C#Cc4c(N)ncc5ccc(C#N)cc45)c3)cc2C(F)(F)F)CC1" ?
inactive

###

Catalogue of TGI values
# Test system: MCF7 breast
# Test details: NCI tumour cell line growth inhibition, 48 h
Where a SMILES comes first, the peptide text is derived from it. The star is where a group is joined. Boc = CC(C)(C)OC(=O)*

Item "CCOC(=O)c1[nH]cc(C)c1-c1cccn1-c1ccc(Cl)cc1[N+](=O)[O-]" : provide TGI
> 100 µM

Item "O=Cc1cccc2ccc3ccccc3c12" : provide TGI
37.4 µM

Item CC1CCCC(C(=O)CC2CC(=O)NC(=O)C2)C1=O (stereo not given) : provide TGI
> 100 µM

---
Item "COc1ccc(/C=C/C(=O)c2c(O)ccc3c(C)c(C(=O)O)oc23)cc1" : provide TGI
> 100 µM

Item COC(=O)C(Cc1ccccc1)NC(=O)C(CS)NC(=O)OC(C)(C)C (stereo not drawn) (Boc-Cys-Phe-OMe; configuration not given here) : provide TGI
> 100 µM

Item "CCOC(=O)/C=C/C(=O)O/C=C/[N+](=O)[O-]" : provide TGI
> 100 µM

Item COc1ccc2c(c1)N(Cc1ccc(Cl)cc1)CCC2N1CCCC1=O (stereo not given) : provide TGI
25.5 µM

Item "C[C@@H](N)COc1ccc(-c2cnc3ccc(N[C@H](C)c4cccc(F)c4)nn23)cc1" : provide TGI
2.69 µM

Item "CNC(=O)N(CCC#N)CCN(C(=O)NC)c1ccccc1" : provide TGI
> 100 µM

Item "Cc1ccc([P+](Cc2ccccc2)(c2ccccc2)c2ccccc2)cc1" : provide TGI
> 100 µM

###

# Test system: SNB-19 CNS
# Test details: NCI tumour cell line growth inhibition, 48 h; in the data active = GI50 below about 0.43 µM; inactive = the rest
Choose the fitting class; nothing outside active, inactive is accepted.

Answered examples (10):
Hi team, can someone confirm the assay call for O=C(CN1CCN(Cc2ccccc2Cl)CC1)NC1CC(=O)c2c(Br)sc(Br)c21 (stereo not drawn) ?
inactive

Hi team, can someone confirm the assay call for "Cc1ccc([P+](Cc2ccccc2)(c2ccccc2)c2ccccc2)cc1" ?
inactive

Hi team, can someone confirm the assay call for "O=C(CCCn1c2c(sc3ccccc32)c(=O)n2nnc(-c3ccccc3)c12)NCCc1cnc[nH]1" ?
inactive

Hi team, can someone confirm the assay call for "C[C@H](c1ccc(F)cc1CCCC(=O)O)N(c1cc(F)ccc1F)S(=O)(=O)c1ccc(Cl)cc1" ?
inactive

Hi team, can someone confirm the assay call for "OCc1ccc(-c2csc(-c3ccc(CO)o3)c2)o1" ?
inactive

Hi team, can someone confirm the assay call for O=C(c1ccccc1)C(Cl)C(Cl)c1ccccc1 (stereo not drawn) ?
inactive

Hi team, can someone confirm the assay call for "CNC(=O)c1nn(C)c2c1C(C)(C)Cc1cnc(Nc3cccc(N4CCN(C)CC4)c3)nc1-2" ?
active

Hi team, can someone confirm the assay call for "O=C(Cn1c(C(=O)c2ccc(Cl)cc2)nc(-c2ccc(Cl)cc2)c1-c1ccc(Cl)cc1)c1ccccc1" ?
inactive

Hi team, can someone confirm the assay call for "Oc1cc(N2CC2)c(O)cc1N1CC1" ?
inactive

Hi team, can someone confirm the assay call for "O=C1Nc2ccccc2/C1=C\c1c(-c2ccccc2)nc2sccn12" ?
inactive

---
Hi team, can someone confirm the assay call for "COc1cc(-c2cc3ncccc3c3nc(OCCN(C)C)c4cccnc4c23)cc(OC)c1OC" ?
inactive

Hi team, can someone confirm the assay call for CC1CCC2C(C)C(=O)OC3OC4(C)CCC1C32OO4 (stereo not drawn) ?
inactive

###

Catalogue of TGI values
# Tested on: UACC-62 melanoma
# Test details: NCI tumour cell line growth inhibition, 48 h

Please tell me the measured TGI for "COc1cc2c3c(n(CCCN4CCNCC4)c(=O)c2cc1OC)-c1cc2c(cc1C3=O)OCO2" ; system: UACC-62 melanoma.
7.61 µM

Please tell me the measured TGI for CCc1ccccc1NC(=O)C(C#N)C1=C(Cl)C(=O)c2ccccc2C1=O (centres undefined) ; system: UACC-62 melanoma.
31.2 µM

Please tell me the measured TGI for N#CC1C[C@@H]2CC3(CCC2CN1C(=O)c1ccccc1)OCCO3 (some centres undefined) ; system: UACC-62 melanoma.
> 100 µM

Next compound, please.
Please tell me the measured TGI for COC1=CC(c2ccc[nH]2)=N/C1=C\c1[nH]c(C)c(C(=O)CCC(=O)Oc2ccc3c(c2)CCC2C3CC[C@]3(C)[C@@H](O)CC[C@@H]23)c1C (some centres undefined) ; system: UACC-62 melanoma.
4.62 µM

The values you see were collected from PubChem BioAssay (NCI).
